This listing pairs molecules with measured pIC50.
- assayed_target: Prostaglandin D2 receptor 2 (Homo sapiens, UniProt Q9Y5Y4)
- Sequence (Q9Y5Y4 whole entry): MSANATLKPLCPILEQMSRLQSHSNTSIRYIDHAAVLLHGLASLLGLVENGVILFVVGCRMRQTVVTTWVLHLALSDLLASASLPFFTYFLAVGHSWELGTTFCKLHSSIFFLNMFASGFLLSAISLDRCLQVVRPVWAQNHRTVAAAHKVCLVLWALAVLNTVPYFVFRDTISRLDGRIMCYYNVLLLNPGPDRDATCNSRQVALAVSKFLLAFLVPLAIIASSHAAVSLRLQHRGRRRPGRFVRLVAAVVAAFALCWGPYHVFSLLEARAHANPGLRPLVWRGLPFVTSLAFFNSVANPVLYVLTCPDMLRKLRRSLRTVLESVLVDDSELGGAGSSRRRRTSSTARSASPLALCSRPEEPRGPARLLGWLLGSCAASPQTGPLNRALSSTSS
- assay_text: Concentration required to inhibit PGD-2 (10 nM) stimulated [Ca2+] flux in CHO cells expressing human CRTH2 receptor
FYI, pIC50 means -log10 of a concentration in mol per litre.

Look over these answered cases.
1. Cc1c(CC(=O)O)c2cc(F)ccc2n1S(=O)(=O)c1cc(Cl)ccc1Cl | 7.36
2. Cc1ccc(S(=O)(=O)n2c(C)c(CC(=O)O)c3cc(F)ccc32)cc1 | 5.66
3. Cc1c(CC(=O)O)c2cc(F)ccc2n1S(=O)(=O)c1ccccc1 | 6.01
4. Cc1c(CC(=O)O)c2cc(F)ccc2n1S(=O)(=O)c1ccc(Cl)cc1 | 7.59
5. Cc1c(CC(=O)O)c2cc(F)ccc2n1S(=O)(=O)c1cccc(F)c1 | 6.19
6. CCCCS(=O)(=O)n1c(C)c(CC(=O)O)c2cc(F)ccc21 | 6.07

Quick one: pIC50 of "COc1ccc(S(=O)(=O)n2c(C)c(CC(=O)O)c3cc(F)ccc32)cc1" ?
6.50

Quick one: pIC50 of "Cc1c(CC(=O)O)c2cc(F)ccc2n1S(=O)(=O)c1ccc(S(C)(=O)=O)cc1" ?
6.80

Quick one: pIC50 of "Cc1c(CC(=O)O)c2cc(F)ccc2n1S(=O)(=O)c1ccc(F)cc1" ?
6.80
